PARAMETER MEASURED: melting point

Illustrative cases are given below, each with its answer.
Exercise: GET /values?readout=melting point&item= CN1CCC=C(C(=O)OCc2cccc(O)c2)C1 [Compound 18b]
Key: 115 to 119 °C

Exercise: CN1CCC=C(C(=O)OCC(O)(c2ccccc2)c2ccccc2)C1 [Compound 25] , same question.
Key: 150 to 153 °C

Exercise: CN1CCC=C(C(=O)OC(c2ccccc2)c2cccc(O)c2)C1 (stereo not shown) [Compound 17b] , same question.
Key: 143 to 144 °C

Others:
Exercise: GET /values?readout=melting point&item= CN1CCC=C(C(=O)Oc2ccccc2-c2ccccc2O)C1 [Compound 27]
Key: 142 to 144 °C
